These measurements were taken from patent US12624096B2.

target-of-assay: hT40 (Homo sapiens, UniProt P10636)
Sequence (P10636 1-441 isoform P10636-8): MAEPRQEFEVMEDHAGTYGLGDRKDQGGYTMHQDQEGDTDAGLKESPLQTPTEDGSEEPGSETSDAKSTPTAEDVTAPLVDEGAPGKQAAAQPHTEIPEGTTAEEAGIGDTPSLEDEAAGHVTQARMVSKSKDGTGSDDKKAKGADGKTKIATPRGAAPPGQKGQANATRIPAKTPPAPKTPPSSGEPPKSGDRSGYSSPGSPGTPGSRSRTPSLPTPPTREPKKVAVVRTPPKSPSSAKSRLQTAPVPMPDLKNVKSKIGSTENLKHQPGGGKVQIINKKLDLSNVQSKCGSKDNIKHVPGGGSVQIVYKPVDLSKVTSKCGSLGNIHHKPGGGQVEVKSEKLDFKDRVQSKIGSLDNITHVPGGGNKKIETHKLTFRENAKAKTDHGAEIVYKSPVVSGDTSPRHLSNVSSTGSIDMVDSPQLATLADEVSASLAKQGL
experiment-summary: Biacore X100 SPR, scAb captured via anti-HuCk, hT40 as analyte
Assay type: binding
condition-parameters: scAb, Table 23, T441 (hT40)
Experimental: Surface plasmon resonance (SPR) is widely regarded as the gold standard for real time measurement of protein-protein interactions such as antibody binding. […] The single cycle kinetics protocol was similar and utilised the same level of scAb capture. […] Binding responses were analysed in Biacore X100 evaluation software and data fitted to a 1:1 binding model to obtain kinetic and affinity characterisation.
reported-metric: ka (M⁻¹ s⁻¹)

molecule: CA4: anti-tau clone, SEQ ID NO: 368 (protein, CA4 amino acid sequence) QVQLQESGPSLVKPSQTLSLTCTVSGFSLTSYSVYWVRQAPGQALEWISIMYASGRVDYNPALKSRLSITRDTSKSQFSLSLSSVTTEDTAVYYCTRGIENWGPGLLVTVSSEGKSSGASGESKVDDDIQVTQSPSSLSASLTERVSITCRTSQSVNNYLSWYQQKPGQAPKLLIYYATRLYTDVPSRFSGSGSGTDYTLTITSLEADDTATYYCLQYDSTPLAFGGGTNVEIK
number: 458100
